FYI, the data here is from patent US11643388B2.

- Tested Target: α4β1 (Homo sapiens, UniProt P05556+P13612)
- Sequence (P13612 34-1032): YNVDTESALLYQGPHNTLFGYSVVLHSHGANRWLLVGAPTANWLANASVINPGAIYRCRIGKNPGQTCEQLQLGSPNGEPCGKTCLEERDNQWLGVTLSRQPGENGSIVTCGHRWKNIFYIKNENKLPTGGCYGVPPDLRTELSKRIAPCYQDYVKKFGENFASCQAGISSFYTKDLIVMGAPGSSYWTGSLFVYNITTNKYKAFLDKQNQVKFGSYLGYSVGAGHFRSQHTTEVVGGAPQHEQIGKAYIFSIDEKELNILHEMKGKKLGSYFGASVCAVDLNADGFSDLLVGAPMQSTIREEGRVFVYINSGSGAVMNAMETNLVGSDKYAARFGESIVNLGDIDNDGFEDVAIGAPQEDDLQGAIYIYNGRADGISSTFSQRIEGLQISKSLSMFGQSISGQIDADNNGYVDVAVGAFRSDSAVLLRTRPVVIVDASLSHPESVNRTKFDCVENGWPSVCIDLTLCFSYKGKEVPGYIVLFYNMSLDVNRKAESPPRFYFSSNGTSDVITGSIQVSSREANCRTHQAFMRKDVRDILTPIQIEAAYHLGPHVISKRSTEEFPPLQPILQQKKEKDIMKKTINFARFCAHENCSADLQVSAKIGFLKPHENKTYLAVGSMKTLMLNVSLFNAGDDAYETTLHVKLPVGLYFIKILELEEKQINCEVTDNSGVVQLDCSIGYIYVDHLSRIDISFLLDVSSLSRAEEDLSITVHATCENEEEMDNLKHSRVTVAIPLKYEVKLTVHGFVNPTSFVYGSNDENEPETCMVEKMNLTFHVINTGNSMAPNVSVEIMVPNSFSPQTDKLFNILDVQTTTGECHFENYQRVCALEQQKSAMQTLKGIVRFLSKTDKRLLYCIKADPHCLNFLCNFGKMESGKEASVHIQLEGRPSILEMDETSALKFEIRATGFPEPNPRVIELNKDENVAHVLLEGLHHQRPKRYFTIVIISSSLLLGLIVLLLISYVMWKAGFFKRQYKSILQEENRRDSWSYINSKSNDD
- Sequence (P05556 21-798): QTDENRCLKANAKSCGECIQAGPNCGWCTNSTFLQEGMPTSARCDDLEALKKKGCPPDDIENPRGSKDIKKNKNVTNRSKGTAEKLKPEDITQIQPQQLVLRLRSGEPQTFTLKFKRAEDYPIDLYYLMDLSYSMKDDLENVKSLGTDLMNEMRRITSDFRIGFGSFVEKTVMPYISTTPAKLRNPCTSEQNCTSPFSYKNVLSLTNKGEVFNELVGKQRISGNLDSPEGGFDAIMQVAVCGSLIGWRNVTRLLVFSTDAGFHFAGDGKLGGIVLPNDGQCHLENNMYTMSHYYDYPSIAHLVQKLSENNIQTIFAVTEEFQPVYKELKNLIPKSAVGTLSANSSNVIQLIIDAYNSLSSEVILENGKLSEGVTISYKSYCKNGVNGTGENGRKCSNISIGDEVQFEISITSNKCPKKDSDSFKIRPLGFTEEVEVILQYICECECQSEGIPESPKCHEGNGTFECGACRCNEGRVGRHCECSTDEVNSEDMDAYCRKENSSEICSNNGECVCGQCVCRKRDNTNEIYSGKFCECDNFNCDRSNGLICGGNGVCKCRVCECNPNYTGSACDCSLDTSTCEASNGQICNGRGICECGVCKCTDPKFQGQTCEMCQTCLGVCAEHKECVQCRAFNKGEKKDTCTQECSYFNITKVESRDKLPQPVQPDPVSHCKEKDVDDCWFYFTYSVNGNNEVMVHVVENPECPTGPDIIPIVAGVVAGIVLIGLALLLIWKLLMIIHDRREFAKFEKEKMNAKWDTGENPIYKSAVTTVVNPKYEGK
- Measurement Description: α4β1 cell adhesion
Measured Endpoint: IC50 (µM)

// worked examples, IC50 included
Chemical String	IC50 / µM
O=C(NC[C@H](NC(=O)c1c(Cl)ccc(N2CC(c3ccccc3)C2)c1Cl)C(=O)O)N[C@@H]1CCc2ccccc21	37
CN(Cc1ccccc1)C(=O)NC[C@H](NC(=O)c1c(Cl)cccc1Cl)C(=O)O	83.9

A: O=C(NC[C@H](NC(=O)c1c(Cl)cc(C(=O)NCc2cccc(O)c2)cc1Cl)C(=O)O)N[C@@H]1CCc2ccccc21
B: O=C(NC[C@H](NC(=O)c1c(Cl)ccc(NCCCc2ccccc2)c1Cl)C(=O)O)N[C@@H]1CCc2ccccc21
Incoming: Consider A and B . Which of these has its IC50 at a higher number? Write down the label attached to your selection.
Outgoing: B
(B: 32.3 µM, A: 21.1 µM)

A: O=C(NC[C@H](NC(=O)c1c(Cl)ccc(Nc2ncc3ccccc3n2)c1Cl)C(=O)O)N[C@@H]1CCc2ccccc21
B: O=C(CCc1ccccc1)Nc1ccc(Cl)c(C(=O)N[C@@H](CNC(=O)N[C@@H]2CCc3ccccc32)C(=O)O)c1Cl
Incoming: From the items above, decide which of A and B has the lower IC50 reading. I would appreciate it if you answered with the label of your choice.
Outgoing: A
(A: 2.9 µM, B: 21 µM)

---

- Tested Target: α2β1 (Homo sapiens, UniProt P05556+P17301)
- Sequence (P17301 30-1181): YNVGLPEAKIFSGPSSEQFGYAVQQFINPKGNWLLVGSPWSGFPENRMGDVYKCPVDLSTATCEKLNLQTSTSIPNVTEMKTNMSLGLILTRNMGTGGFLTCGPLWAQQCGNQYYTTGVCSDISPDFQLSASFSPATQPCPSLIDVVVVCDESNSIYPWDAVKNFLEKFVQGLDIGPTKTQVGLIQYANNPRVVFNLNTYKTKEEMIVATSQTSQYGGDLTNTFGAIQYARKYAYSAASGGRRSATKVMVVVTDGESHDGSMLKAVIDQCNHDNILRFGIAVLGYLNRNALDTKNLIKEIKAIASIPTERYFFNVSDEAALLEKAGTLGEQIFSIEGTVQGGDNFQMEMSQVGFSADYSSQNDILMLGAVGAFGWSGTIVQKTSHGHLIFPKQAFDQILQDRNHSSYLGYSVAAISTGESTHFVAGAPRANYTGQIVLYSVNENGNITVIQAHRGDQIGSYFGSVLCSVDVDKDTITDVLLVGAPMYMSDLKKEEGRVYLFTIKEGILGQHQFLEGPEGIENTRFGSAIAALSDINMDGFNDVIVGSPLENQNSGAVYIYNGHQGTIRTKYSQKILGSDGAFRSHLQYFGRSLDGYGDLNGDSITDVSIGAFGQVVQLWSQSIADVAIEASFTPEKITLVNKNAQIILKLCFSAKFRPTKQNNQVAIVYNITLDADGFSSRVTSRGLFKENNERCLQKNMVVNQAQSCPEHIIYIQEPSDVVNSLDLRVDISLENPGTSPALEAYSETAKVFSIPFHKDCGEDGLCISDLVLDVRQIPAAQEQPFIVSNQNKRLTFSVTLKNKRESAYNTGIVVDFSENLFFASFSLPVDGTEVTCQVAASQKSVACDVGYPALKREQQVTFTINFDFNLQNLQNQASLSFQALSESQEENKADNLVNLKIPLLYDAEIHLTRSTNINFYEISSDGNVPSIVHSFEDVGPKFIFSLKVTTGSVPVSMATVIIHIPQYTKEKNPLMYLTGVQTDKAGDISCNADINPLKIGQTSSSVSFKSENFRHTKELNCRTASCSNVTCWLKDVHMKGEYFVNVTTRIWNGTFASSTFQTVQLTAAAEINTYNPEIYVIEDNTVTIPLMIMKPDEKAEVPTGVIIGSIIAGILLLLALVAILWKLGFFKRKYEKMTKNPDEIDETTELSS
- Sequence (P05556 21-798): as the sequence (P05556 21-798) above
- Measurement Description: α2β1 cell adhesion
- Type: cell-based
pIC50: −log10 of the molar value.
Measured Endpoint: pIC50

Solved cases below.
Chemical String	Measured Endpoint	Obs Value
Cc1ccc(CC(=O)Nc2ccc(Cl)c(C(=O)N[C@@H](CNC(=O)N[C@@H]3CCc4ccccc43)C(=O)O)c2Cl)cc1Cl	pIC50	5.30 to 6.00
O=C(NC[C@H](NC(=O)c1c(Cl)cc(-c2ccccc2)cc1Cl)C(=O)O)N[C@@H]1CCc2ccccc21	pIC50	< 5.30
O=C(NC[C@H](NC(=O)c1c(Cl)ccc(NCCCc2ccccc2)c1Cl)C(=O)O)N[C@@H]1CCc2ccccc21	pIC50	> 6.30
O=C(NC[C@H](NC(=O)c1c(Cl)cc(COCc2ccccc2)cc1Cl)C(=O)O)N[C@@H]1CCc2ccccc21	pIC50	6.00 to 6.30

Incoming: Record request: pIC50 value, item O=C(NC[C@H](NC(=O)c1c(Cl)cc2c(c1Cl)CCN(C(=O)c1ccccc1)C2)C(=O)O)N[C@@H]1CCc2ccccc21
Outgoing: > 6.30

Incoming: Same again, this time with Cc1cccc(CC(=O)Nc2ccc(Cl)c(C(=O)N[C@@H](CNC(=O)N[C@@H]3CCc4ccccc43)C(=O)O)c2Cl)c1
Outgoing: 6.00 to 6.30

---

- Measurement Description: Caco-2 permeability
- Assay type: in vitro ADME
- Condition Details: human, B-A direction
Measured Endpoint: Papp B→A (×10⁻⁶ cm/s)

Chemical String	Unit Abbreviation	Obs Value
O=C(NC[C@H](NC(=O)c1c(Cl)cc(C(=O)NCc2cccc(O)c2)cc1Cl)C(=O)O)N[C@@H]1CCc2ccccc21	×10⁻⁶ cm/s	1.6
O=C(NC[C@H](NC(=O)c1c(Cl)cc2c(c1Cl)CCN(C(=O)c1ccccc1)C2)C(=O)O)N[C@@H]1CCc2ccccc21	×10⁻⁶ cm/s	6.8
O=C(NC[C@H](NC(=O)c1c(Cl)ccc(Nc2ncc3ccccc3n2)c1Cl)C(=O)O)N[C@@H]1CCc2ccccc21	×10⁻⁶ cm/s	24.2

P: O=C(NC[C@H](NC(=O)c1c(Cl)cc(C(=O)NCc2cccc(Cl)c2)cc1Cl)C(=O)O)N[C@@H]1CCc2ccccc21
Q: CN(Cc1ccccc1)C(=O)NC[C@H](NC(=O)c1c(Cl)cc(C(=O)NCc2cccc(O)c2)cc1Cl)C(=O)O
Incoming: Larger number for Papp B→A: P , or Q ? Identify your selection by its label.
Outgoing: P
(P: 5.53 ×10⁻⁶ cm/s, Q: 1.5 ×10⁻⁶ cm/s)
